protein stability index: recorded values
B1: ZNF263 (parent)
chain: CSECGESFSRSSRLMSHQRTHTG

- Variants of: B1
- Experimental details: protein stability index of a GFP-peptide fusion (GPS, HEK-293T) (PSI 1-6); higher = more stable;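 also: lentivirally expressed fusions sorted by FACS into six bins by GFP to DsRed ratio, PSI derived from sequencing read proportions per bin multiplied by bin number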
- Test parameters: c terminus: native
Response field accepts a number only; no unit should be typed.

What value of protein stability index has been recorded for this entry: `H17Q`
2.04
